Target: H^+ /K^+ - ATPase (Oryctolagus cuniculus, UniProt P27112)
Construct: Rabbit gastric mucosa containing H^+ /K^+ - ATPase activity is isolated
Sequence (P27112 2-1035 limits assumed): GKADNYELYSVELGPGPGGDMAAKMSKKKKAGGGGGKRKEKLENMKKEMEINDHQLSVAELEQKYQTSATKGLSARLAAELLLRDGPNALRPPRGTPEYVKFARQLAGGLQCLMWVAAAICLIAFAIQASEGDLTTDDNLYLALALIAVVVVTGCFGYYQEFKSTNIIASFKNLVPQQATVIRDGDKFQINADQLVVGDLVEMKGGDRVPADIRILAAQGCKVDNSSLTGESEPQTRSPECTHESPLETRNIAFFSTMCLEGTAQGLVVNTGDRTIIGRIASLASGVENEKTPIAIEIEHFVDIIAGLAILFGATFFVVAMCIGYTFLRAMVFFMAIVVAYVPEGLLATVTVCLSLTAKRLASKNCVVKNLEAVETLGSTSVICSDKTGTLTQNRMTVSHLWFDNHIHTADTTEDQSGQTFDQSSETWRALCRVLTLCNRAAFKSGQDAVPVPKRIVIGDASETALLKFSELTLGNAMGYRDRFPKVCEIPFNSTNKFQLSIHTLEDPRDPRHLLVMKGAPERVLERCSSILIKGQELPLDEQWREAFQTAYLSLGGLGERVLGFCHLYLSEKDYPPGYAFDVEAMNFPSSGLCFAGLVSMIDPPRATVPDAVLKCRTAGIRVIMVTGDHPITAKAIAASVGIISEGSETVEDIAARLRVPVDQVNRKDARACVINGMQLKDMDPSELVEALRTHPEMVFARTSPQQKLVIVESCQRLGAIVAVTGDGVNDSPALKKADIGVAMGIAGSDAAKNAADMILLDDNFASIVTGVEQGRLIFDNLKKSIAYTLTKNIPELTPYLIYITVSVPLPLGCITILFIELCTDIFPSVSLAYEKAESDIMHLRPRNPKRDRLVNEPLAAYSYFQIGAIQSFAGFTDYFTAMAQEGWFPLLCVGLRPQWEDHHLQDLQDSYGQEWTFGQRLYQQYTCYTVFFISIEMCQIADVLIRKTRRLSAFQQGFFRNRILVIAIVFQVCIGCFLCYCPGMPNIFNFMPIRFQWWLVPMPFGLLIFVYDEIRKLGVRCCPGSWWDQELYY
Sequence (P18597 whole entry partner): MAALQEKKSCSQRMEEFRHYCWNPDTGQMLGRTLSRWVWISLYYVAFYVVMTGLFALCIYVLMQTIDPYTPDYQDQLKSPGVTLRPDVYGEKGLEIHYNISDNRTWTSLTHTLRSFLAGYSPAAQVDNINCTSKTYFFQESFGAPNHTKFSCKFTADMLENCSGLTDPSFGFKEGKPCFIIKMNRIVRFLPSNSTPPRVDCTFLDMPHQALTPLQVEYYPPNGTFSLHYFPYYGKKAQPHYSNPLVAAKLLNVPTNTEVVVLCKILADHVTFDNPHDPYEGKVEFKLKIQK
Test: H+/K+-ATPase inhibition (rabbit gastric mucosa enzyme, Pi liberated by ATP hydrolysis)
Details: pH 6.5, 37° C., 15 min
pIC50: −log10 of the molar value.
Documented pIC50 across a set of compounds
experimentalReadout: pIC50

# compound, experimentalReadout, valueMeasured
measured = [
    ("COc1ccc2[nH]c([S+]([O-])Cc3ncc(C)c(OC)c3C)nc2c1 (centres unmarked) [Omeprazole, reference compound]", "pIC50", 5.36),
    ("COc1ccnc(C[S+]([O-])c2nc3cc(N4CCOCC4)c(F)cc3[nH]2)c1C (centres unmarked)", "pIC50", 5.59),
]
